- experiment: Half life in mouse liver S9 fractions at 2 uM in presence of NADPH by LC-MS/MS analysis
- Type: ADME, tissue-based
- condition parameters: liver S9 fraction
measurement label: half-life at 2 µM

Guide cases for half-life at 2 µM, answers given:
- molecule: "CCCC[S@@+]([O-])c1sc2nc(-c3nccs3)cc(-c3cnc(C)n3C)c2c1N"
  measurement label: "half-life at 2 µM"
  value: "35 min"
- molecule: "CCCC[S+]([O-])c1sc2nc(-c3cccs3)cc(-c3ccccc3)c2c1N (centres undefined)"
  measurement label: "half-life at 2 µM"
  value: "83 min"
- molecule: "CCCC[S@@+]([O-])c1sc2nc(-c3cccs3)cc(-c3ccccc3)c2c1N"
  measurement label: "half-life at 2 µM"
  value: "13 min"

We now examine a further molecule.
The reported half-life at 2 µM of the molecule CCCC[S@+]([O-])c1sc2nc(-c3nccs3)cc(-c3cnc(C)n3C)c2c1N was 289 min

----------
- experiment: Plasma concentration in […] mouse at […], ip measured up to 3 hrs post dose by LC-MS/MS analysis
- Format: ADME, organism-based
measurement label: concentration at 3 h

The reported concentration at 3 h of the compound CCCC[S@@+]([O-])c1sc2nc(-c3nccs3)cc(-c3cnc(C)n3C)c2c1N was < 10 nM

----------
- experiment: Half life in human liver S9 fraction at 2 uM by LC-MS/MS analysis
- Type: ADME, tissue-based
measurement label: half-life at 2 µM (h)
Value expressed in h; do not type the unit.

The reported half-life at 2 µM of the compound CCCC[S@+]([O-])c1sc2nc(-c3nccs3)cc(-c3cnc(C)n3C)c2c1N was 3.73

----------
- System: Liver
- experiment: Half life in mouse liver S9 fractions at 2 uM in presence of NADPH by LC-MS/MS analysis
- Assay type: ADME, tissue-based
- condition parameters: s9, 2 µM
Reported t1/2 values for the following molecules.
Value expressed in h; do not type the unit.

- molecule: "CCCC[S+]([O-])c1sc2nc(-c3nccs3)cc(-c3ccc(COC(=O)CN(C)C)cc3)c2c1N (stereo not given)"
  value: 0.033
- molecule: "CCCC[S+]([O-])c1sc2nc(-c3nccs3)cc(-c3ccc(CO)cc3)c2c1N (stereo not given)"
  value: 0.217

We now examine a further molecule.
Bench note, Liver: CCCC[S+]([O-])c1sc2nc(-c3nccs3)cc(-c3ccc(OCCO)cc3)c2c1N (stereo not given) , t1/2 reads 1.38

----------
- experiment: AUC in CD1 mouse at 10 mg/kg, ip measured at 10 to 1440 mins post dose by LC-MS/MS analysis
- Assay type: ADME, organism-based
- condition parameters: CD1, mouse, in vivo
Reported AUC values for the following compounds.
Value expressed in ng·h/mL; do not type the unit.

The reported AUC of the compound CCCC[S@@+]([O-])c1sc2nc(-c3nccs3)cc(-c3cnc(C)n3C)c2c1N was 783

The reported AUC of the compound CCCC[S+]([O-])c1sc2nc(-c3cccs3)cc(-c3ccccc3)c2c1N (stereo not drawn) was 1380

The reported AUC of the compound CCCC[S@@+]([O-])c1sc2nc(-c3cccs3)cc(-c3ccccc3)c2c1N was 717

----------
- experiment: Plasma concentration in CD1 mouse at 10 mg/kg, ip measured at 3 hrs post dose by LC-MS/MS analysis
- Format: ADME, organism-based
measurement label: concentration at 3 h (nM)
Value expressed in nM; do not type the unit.

- compound: "CCCC[S+]([O-])c1sc2nc(-c3nccs3)nc(-c3ccccc3)c2c1N (racemic)"
  value: 60
- compound: "COCC[S+]([O-])c1sc2nc(-c3nccs3)cc(-c3cnc(C)n3C)c2c1N (centres undefined)"
  value: 60

We now examine a further compound.
The reported concentration at 3 h of the compound CCCC[S+]([O-])c1sc2nc(-c3nccs3)cc(-c3ccc(OCCO)cc3)c2c1N (centres undefined) was 4200
